System: SNRK
Conditions: concentration: 1 μM,replicates: in singlicate; n = 1;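 further: KINOMEscan kinase panel screen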
readout name: %Inh (%)
Give bare numbers, in %.

Example entries and their recorded answers appear below.
>>> df
                                test_smiles  readout_name  observed_value
0  CC(=O)Nc1nc2cnc(Nc3cc(NC(=O)c4cccc(CC(C)(C)C#N)c4)ccc3C)nc2s1          %Inh              17
1  CN1CCN(CCCNc2nccc(-c3c(-c4ccc(F)cc4)nn4cc(C(N)=O)ccc34)n2)CC1          %Inh               0
2  Cn1ccc2ncnc(Oc3ccc(NC(=O)Nc4cncc(C(F)(F)F)c4)c(Cl)c3)c21          %Inh               0
3  CN(c1cccc(CNc2nc(Nc3ccc4c(c3)CC(=O)N4)ncc2C(F)(F)F)c1)S(C)(=O)=O          %Inh               0
4  Cn1ccc2ncnc(Oc3ccc(NC(=O)Nc4cccc(C(F)(F)F)c4)c(F)c3)c21          %Inh               0
5  Cl.Cl.NC[C@H](CC1CCCCC1)NC(=O)c1ccc(-c2ccnc3[nH]ccc23)s1          %Inh               0
6     O=C(Nc1n[nH]c2cc(-c3ccco3)ccc12)C1CC1          %Inh               9
7  CC(=O)Nc1ccc(-c2cc3ncnc(SCC(=O)O)c3s2)cc1          %Inh               0
8  O=C(Nc1ccc(Oc2ccc3nc(NC(=O)C4CC4)cn3n2)c(F)c1)c1cccn(-c2ccccc2)c1=O          %Inh               3

Could you now consider this next compound?
Qu. Given the entry COc1cc2ncn(-c3cc(OCC4CCCCC4)c(C(N)=O)s3)c2cc1OC , report its measured %Inh.
Ans. 0

* * *

System: FLT3-autoinhibited
Settings: concentration: 1 μM,replicates: in singlicate; n = 1
Would you please tag the item True when its %Inh is 20% or above, and False when it is below?

Answered cases to consult:
In [3]: df
Out[3]:
                                   compound  assigned_label
0  CS(=O)(=O)c1cccc(CNc2nc(Nc3ccc4c(c3)[C@@H]3C[C@@H]4CNC3=O)ncc2C(F)(F)F)c1            True
1  C[C@@H](Oc1cc(-n2cnc3cc(-c4ccncc4)ccc32)sc1C(N)=O)c1ccccc1Cl            True
2  CCOC(=O)N1CCC(n2cnc(-c3ccc(F)cc3)c2-c2ccnc(N)n2)CC1           False

Qu. Does the compound CN(c1ccccc1CNc1nc(Nc2ccc3c(c2)CC(=O)N3)ncc1C(F)(F)F)S(C)(=O)=O have recorded %Inh that is 20% or more?
Ans. False

Qu. Does the compound N#Cc1cccc(C(=O)NC2CCN(c3ccnc(Nc4ccc(F)cc4)n3)C2)c1 (stereo not drawn) have recorded %Inh that is 20% or more?
Ans. False

Qu. Does the compound Cc1cccc2c(-c3ccncc3)c(-c3ccc(F)cc3)nn12.Cl have recorded %Inh that is 20% or more?
Ans. False

Qu. Does the compound C[C@@H]1CCN(C(=O)N2CCCC2)C[C@@H]1N(C)c1ncnc2[nH]ccc12 have recorded %Inh that is 20% or more?
Ans. False

Qu. Does the compound Cc1nnc(-c2ccc3occ(-c4ccc(S(C)=O)cc4)c3n2)o1 (stereo not drawn) have recorded %Inh that is 20% or more?
Ans. False

Qu. Does the compound CC(=O)Nc1ccc(-c2cc3ncnc(SCC(=O)O)c3s2)cc1 have recorded %Inh that is 20% or more?
Ans. True

Qu. Does the compound Cn1ccc2ncnc(Oc3ccc(NC(=O)Nc4cc(C(C)(C)C)on4)c(Cl)c3)c21 have recorded %Inh that is 20% or more?
Ans. False

Qu. Does the compound CCNCC(Cc1ccccc1)NC(=O)c1cc(Br)c(-c2ccnc3[nH]ccc23)s1.Cl.Cl (stereo not drawn) have recorded %Inh that is 20% or more?
Ans. False

Qu. Does the compound COc1cccc(C2=C(Nc3cccc(Cl)c3)C(=O)NC2=O)c1 have recorded %Inh that is 20% or more?
Ans. False

* * *

Tested on: DRAK2
Construct: gene STK17B
Details: concentration: 1 μM,replicates: in singlicate; n = 1
readout name: %Inh
Your answer should be a number followed by the unit of measure.

Example entries and their recorded answers appear below.
In [3]: df
Out[3]:
                                   compound  observed_value
0  CS(=O)c1ccc(-c2coc3ccc(-c4n[nH]c(=O)o4)cc23)cc1 (stereo not drawn)            100%
1  Cl.Cl.NC[C@H](CC1CCCCC1)NC(=O)c1ccc(-c2ccnc3[nH]ccc23)s1 [GSK1581428]              0%

Could you now consider this next compound?
Qu. Given the entry Cn1ccc2ncnc(Oc3ccc(NC(=O)Nc4cncc(C(F)(F)F)c4)c(Cl)c3)c21 , report its measured %Inh.
Ans. 0%

* * *

System: DRAK1
Construct: gene STK17A
Settings: concentration: 1 μM,replicates: in singlicate; n = 1
readout name: %Inh (%)
Answers are plain numbers, in %.

Example entries and their recorded answers appear below.
In [3]: df
Out[3]:
                                   compound  observed_value
0  COc1ccc(Nc2nccc(N3CCC(NC(=O)c4cccc(C#N)c4)C3)n2)cc1 (stereo not drawn) [GSK1379730]               2
1  COC(=O)Nc1nc2cc(Oc3ccc(NC(=O)Nc4cc(C(F)(F)F)ccc4Cl)cc3)ccc2[nH]1.Cl [GW697465]               2

Qu. Given the entry CCCC(=O)Nc1n[nH]c2ncccc12 [SB-601436] , report its measured %Inh.
Ans. 2

* * *

System: ACVR2B
Conditions: concentration: 1 μM,replicates: in singlicate; n = 1
Assign %Inh to each entry below.
Numbers only, in %.

Example entries and their recorded answers appear below.
>>> df
                                   compound  measurement_units  observed_value
0  Cn1ccc2ncnc(Oc3ccc(NC(=O)Nc4cncc(C(F)(F)F)c4)c(Cl)c3)c21                  %               0
1  Cc1cccc(-c2nc(Nc3ccncc3)c3sccc3n2)n1 [GW869641]                  %              41
2  CS(=O)(=O)c1cccc(CNc2nc(Nc3ccc4c(c3)[C@@H]3C[C@@H]4CNC3=O)ncc2C(F)(F)F)c1                  %               0
3  O=C(Nc1cccc(Oc2ccc3nccn3n2)c1)Nc1cccc(C(F)(F)F)c1                  %               9

Qu. Given the entry CCn1c(-c2nonc2N)nc2cncc(Br)c21 [SB-738004] , report its measured %Inh.
Ans. 9

* * *

System: PCTK1
Construct: gene CDK16
Details: concentration: 1 μM,replicates: in singlicate; n = 1
Assign %Inh to each entry below.
One number for each entry, in %.

Example entries and their recorded answers appear below.
>>> df
                                   molecule  observed_value
0  CC(C(=O)NC1CCN(c2ccnc(Nc3ccc(F)cc3)n2)C1)c1ccc(Cl)cc1 (stereo not drawn)               3
1  COc1ccc(Nc2nccc(N3CCC(NC(=O)c4cccc(C#N)c4)C3)n2)cc1 (stereo not drawn)               3

Could you now consider this next molecule?
Qu. Given the entry COc1cc2ncn(-c3cc(OCC4CCCCC4)c(C(N)=O)s3)c2cc1OC , report its measured %Inh.
Ans. 3

* * *

Assign %Inh to each entry below.
Test system: TNIK
Details: concentration: 1 μM,replicates: in singlicate; n = 1
Your answer should be a number followed by the unit of measure.

Example entries and their recorded answers appear below.
                               molecule  readout_name  observed_value
0             CCCC(=O)Nc1n[nH]c2ncccc12          %Inh              0%
1  Cc1cccc(-c2nc(Nc3ccncc3)c3sccc3n2)n1          %Inh             55%

Hi, could you look up %Inh for each item in my list?
1. O=C(Nc1ccc(Oc2ccc3nc(NC(=O)C4CC4)cn3n2)c(F)c1)c1cccn(-c2ccccc2)c1=O
2. Cn1ccc2ncnc(Oc3ccc(NC(=O)Nc4cc(C(C)(C)C)on4)c(Cl)c3)c21
3. O=C(Nc1cccc(C(F)(F)F)c1)c1cccc(Oc2ccc3nccn3n2)c1
4. C[C@@H]1CCN(C(=O)N2CCCC2)C[C@@H]1N(C)c1ncnc2[nH]ccc12
5. COc1cc(Nc2nccc(N3CCC(NC(=O)c4cccc(C#N)c4)C3)n2)cc(OC)c1OC (stereo not drawn)
6. CCn1c(-c2nonc2N)nc2cncc(Br)c21
7. Cl.Cl.NC[C@H](CC1CCCCC1)NC(=O)c1ccc(-c2ccnc3[nH]ccc23)s1
8. COc1cc2c(Nc3ccc(NC(=O)c4ccccc4)cc3)ncnc2cc1OCCCN1CCOCC1

Ans.
34%
92.5%
0%
14%
0%
18%
12%
0%

Hi, could you look up %Inh for each item in my list?
1. CN1CCN(CCCNc2nccc(-c3c(-c4ccc(F)cc4)nn4cc(C(N)=O)ccc34)n2)CC1
2. O=C1NCCc2[nH]c(-c3ccncc3)cc21

Ans.
["76%", "35%"]

The measurements presented in this section are drawn from paper PMC5540273.
